Source listed as PubChem BioAssay (NCI).

Field: growth inhibition. Provide a value for each of the compounds that follow.
# measurement notes: NCI Yeast Anticancer Drug Screen. Data for the sgs1 mgt1 strain (AID 161);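 also: 0% = growth of cultures given vehicle only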
# condition summary: S. cerevisiae sgs1 mgt1 strain, at 50.0 µM, stronger effect = higher value
Compounds without any hit were thinned out: in the full panel of roughly 79,000, 15% have a hit.
Answers are plain numbers, in %.

Past entries and their recorded results:
compound: O=CNC(Cc1ccccc1)c1ccc(OCc2ccccc2)cc1 (stereo not given)
unit: %
growth inhibition: 1.55

compound: Oc1cc(-n2cccn2)c(O)cc1-n1cccn1
unit: %
growth inhibition: 15.3

compound: CCCCCCCCCCCCCCC(=O)OCCN(C)C
unit: %
growth inhibition: 1.45

compound: CC(=O)Oc1ccc(OC(C)=O)c2cc3c(cc12)C(=O)C(C)=C(C)C3=O
unit: %
growth inhibition: 1.1

I need growth inhibition for every entry listed below, if you could help.
1. O=C1CS(=O)(=O)CN1c1ccc(Cl)c(Cl)c1
2. O=C1NCC(C2CC2)(C2CC2)O1

-7.65
-5.7

I need growth inhibition for every entry listed below, if you could help.
1. CCN(CC)c1cccc2c1C1(O)CCC3(CC21)OCCCCO3 (stereo not given)
2. CC(C)Cc1cccc(C(C)C)c1NC(=O)CCC(=O)N/N=C1\C(=N/NC(=O)CCC(=O)Nc2c(C(C)C)cccc2C(C)C)C(c2ccc3c(c2)OCO3)Oc2ccccc21 (stereo not given)
3. Oc1cc(N2CCCC2)ccc1/C=N/N1C(=S)N(c2ccccc2)C(=Nc2ccccc2)C1=Nc1ccccc1

[-57.3, -5, -1.3]

# growth inhibition of O=C(OCC1OC(n2nc(SCc3ccccc3)c(=S)[nH]c2=O)C(OC(=O)c2ccccc2)C1OC(=O)c1ccccc1)c1ccccc1 (stereo not given) = 14.2
